System: SK-MEL-5 melanoma
Measurement Notes: NCI-60 one-dose screen, 48 h
Settings: 10 µM unless noted
Compounds without any hit were thinned out: in the full panel of roughly 83,000, 20% have a hit. Calls of active or inactive are those of the source. The calls were made as follows: active = growth percent below 10; inactive = the rest.
Answer with one of the outcomes t (active), f (inactive)

Record request — test call for COc1cc(NC(=O)c2cncnc2Nc2ccc3c(ccn3Cc3ccccn3)c2)cc(OC)c1
f

Call for entry COc1ccc2c(c1)c(/C(O)=C1\COC(=O)C1=O)cn2Cc1ccc(F)cc1 :
f

Which result was noted for this compound in the test: O=C1Nc2ccccc2/C1=C/c1cccn1C(=O)c1ccc(Cl)s1
f

Returns: the outcome recorded for O=C1c2cccc3cccc(c23)C(=O)N1C/C=C/c1ccc2c3c(cccc13)C(=O)N(CCO)C2=O in this assay.
f

Tell me the recorded outcome of this test for COC(=O)c1nc(-c2ccccc2)oc1S(=O)(=O)NCC(c1ccc(Cl)cc1)N1CCOCC1 (stereo unspecified) .
f

I would be grateful if you could indicate the recorded call for CCOc1ccc(-n2nc(C(=O)NCc3ccccc3OC)nc2-c2cc(OC)c(OC)c(OC)c2)cc1 .
t

Call for entry O=C(O)[C@@H](Cc1ccc2ccccc2c1)NC(=O)n1c2ccccc2c2ccccc21 :
t

Recorded test outcome, item C#CC#CC#CC#CC#CC#CC#CC#CC[C@@H]1OC[C@@H](COC(=O)O[C@@H](C(=O)O[C@H]2C[C@@]3(O)[C@@H](OC(=O)c4ccccc4)[C@@H]4[C@]5(OC(C)=O)CO[C@@H]5C[C@H](O)[C@@]4(C)C(=O)[C@H](OC(C)=O)C(=C2C)C3(C)C)[C@@H](NC(=O)c2ccccc2)c2ccccc2)O1
f

Per the records of this test, what outcome belongs to COC(=O)CC[C@@H]1O[C@@H](c2ccc(F)cc2)[C@@H](O)[C@H]1O ?
f

Would you mind telling me which call this test gave O=C(Nc1ccccc1[N+](=O)[O-])c1ccc(Cl)c(Cl)c1 ?
f

I would be grateful if you could indicate the recorded call for Nc1ccc(-c2csc(-n3[nH]c(=O)ccc3=O)n2)cc1 .
t

====

System: RPMI-8226 leukemia
Measurement Notes: NCI-60 one-dose screen, 48 h (100 = growth as untreated, 0 = no growth, -100 = all killed)
Settings: 10 µM unless noted
Compounds without any hit were thinned out: in the full panel of roughly 83,000, 20% have a hit.
Readout: growth (%)
Please reply with the bare figure in % and do not write the unit itself.

// solved cases for growth follow
N#C/C(=C\c1cn(Cc2ccccc2)c2ccccc12)C(=O)Nc1ncc(Cc2ccccc2Cl)s1; 67.6
C[C@]1(O)CC(=O)[C@]2(O)C3=C(C=C[C@]2(O)C1)C(=O)c1c(O)cccc1C3=O; -0.202
C=C(C)[C@@H]1CC[C@]2(C(=O)N3CCN(C)CC3)CC[C@]3(C)[C@H](CC[C@@H]4[C@@]5(C)CC[C@H](OC(=O)c6ccccc6C(=O)O)C(C)(C)[C@@H]5CC[C@]43C)[C@@H]12; 96.7
CC1(C)CC[C@]2(C(=O)N[C@H](CO)Cc3ccccc3)CC[C@]3(C)C(=CC[C@@H]4[C@@]5(C)CCCNC(C)(C)[C@@H]5CC[C@]43C)[C@@H]2C1; 36

Now for the compound whose growth we want.
What value of growth on RPMI-8226 leukemia does CC(=O)O[C@H]1C[C@@H]2C(C)(C)C(=O)CC[C@@]2(C)c2ccc(C(C)C)cc21 have?
108

====

Tested on: U251 CNS
Measurement Notes: NCI-60 one-dose screen, 48 h (100 = growth as untreated, 0 = no growth, -100 = all killed)
Settings: 10 µM unless noted
This is part of a sample that, as a whole, favours compounds with a hit. Of some 83,000 tested, about 20% had one in any assay.
# growth per record follows
Form entry: value (%) — number only.

Examples from the recorded data:
COc1ccc(C[n+]2c3ccccc3n3c4ccc(N)cc4ccc32)c(OC)c1OC; 8.81
COc1cc(-c2nc3c(ncc4ccc(=O)n(-c5ccccc5)c43)s2)cc(OC)c1OC; 80.3
Cc1ccc(C)c(/C=C2\CN(C(=O)OC(C)(C)C)C/C(=C\c3cc(C)ccc3C)C2=O)c1; 15.9
NC1(CO)COC(c2ccccc2)OC1 (stereo not given); 97.5

Entry C=CN(C(=O)N1CCN(c2cc3c(cc2F)c(=O)c(C(=O)O)cn3C2CC2)CC1)c1nc(-c2ccc(OC)cc2)cs1 : reported growth = ?
13.4

====

In this section we review reported growth values for a set of compounds.
Test system: RXF 393 renal
Measurement Notes: NCI-60 one-dose screen, 48 h (100 = growth as untreated, 0 = no growth, -100 = all killed)
Settings: 10 µM unless noted
About 83,000 compounds went through this panel and 20% of them were active in at least one assay; those are over-represented in the sample as a whole. Activity calls are given as the source filed them. The calls were made as follows: active = growth percent below 10; inactive = the rest.

# annotated cases, reported growth shown
O=C(/C=C/c1ccccc1)c1ccc(Nc2nc(Nc3ccc(F)cc3)nc(Nc3ccc(Cl)cc3)n2)cc1; 134% (inactive)
O=C(O)c1cn(C2CC2)c2cc(N3CCN(C(=O)Nc4nc(-c5ccc(Br)cc5)cs4)CC3)c(F)cc2c1=O; 25.2% (inactive)
Cn1cc(-c2ccc(-c3cn(C)c4ccc(Cl)cc34)[nH]2)c2cc(Cl)ccc21; -51.3% (active)
N#CSc1c[nH]c2cccc(/C=C/C(=O)/C=C(O)/C=C/c3cccc4[nH]cc(SC#N)c34)c12; -62.9% (active)

Turning to the following compound.
// fetch RXF 393 renal growth for CCC1S/C(=N\N=C(\C)c2cc3cc(Cl)ccc3o2)N(c2ccccc2)C1=O (stereo not given)
131% (inactive)

====

Tested on: BT-549 breast
Measurement Notes: NCI-60 one-dose screen, 48 h
Settings: 10 µM unless noted
Description: Growth inhibition of the BT-549 human tumor cell line is measured as a screen for anti-cancer activity. Cells are grown in 96 well plates and exposed to the test compound for 48 hours. Compounds are tested at a single concentration, which is 10^-5 M for most compounds. The reported endpoint is percent growth (GI% or GIPRCNT), where numbers from 0 - 100% represent growth inhibition, and numbers from -100% - 0 represent cell death. For example, a value of 40 represents 60% growth inhibition. […]
This is part of a sample that, as a whole, favours compounds with a hit. Of some 83,000 tested, about 20% had one in any assay. Calls of active or inactive are those of the source. How the source made its calls: active means growth percent below 10; inactive means the rest.
// classify into 1 (yes) for active, 0 (no) for inactive

COc1ccc2c(c1)c(-c1nc(-c3c[nH]c4ncccc34)cs1)cn2CCCN1CCOCC1; 0 (no)
CCOC(=O)c1ccccc1-c1c2ccc(=[N+](C)C)cc-2oc2cc(N(C)C)ccc12; 1 (yes)

Please indicate how the test categorized Nc1nc(NC(=O)Nc2ccc(C(=O)O)cc2)nn1-c1ccc(S(N)(=O)=O)cc1 .
0 (no)

====

Tested on: IGROV1 ovarian
Measurement Notes: NCI-60 one-dose screen, 48 h (100 = growth as untreated, 0 = no growth, -100 = all killed)
Settings: 10 µM unless noted
About 83,000 compounds went through this panel and 20% of them were active in at least one assay; those are over-represented in the sample as a whole.
In this section we review reported growth values for a set of molecules.
Write the number in % without appending the unit.

Worked examples, 4 molecules total:
CC(=O)ON1CCCC(P(=O)(OCCSC(=O)C(C)(C)C)OCCSC(=O)C(C)(C)C)C1=O (stereo not given); 16.3
CCN1C(=O)N(CC)C2C1NN=c1s/c(=C3\C(=O)N(CC(C)C)c4ccccc43)c(=O)n12 (stereo not given); 19
O=C(/C=C(O)/C=C/c1cccc2[nH]ccc12)/C=C/c1cccc2[nH]ccc12; 70.3
Nc1nc(N)c2c(n1)NC(c1cccc(Nc3ccnc4cc(C(F)(F)F)ccc34)c1)CC(c1ccccc1)=N2 (stereo not given); 59.4

Attention now shifts to the item below.
Form field - read-out: growth; system: IGROV1 ovarian; submitted item: CCN1C(=O)N(CC)C2Nn3c(s/c(=C\c4ccccc4Br)c3=O)=NC21 (stereo not given)
25.7

====

# growth per entry
Test system: NCI-H226 lung
Measurement Notes: NCI-60 one-dose screen, 48 h (100 = growth as untreated, 0 = no growth, -100 = all killed)
Settings: 10 µM unless noted
Compounds without any hit were thinned out: in the full panel of roughly 83,000, 20% have a hit.
Lab book: enter the figure in %, no units written.

Examples with answers:
O=C(CSc1nnc(-c2cc(-c3ccccc3)nc3ccccc23)n1-c1ccccc1)Nc1ccc(C(=O)/C=C/c2ccc(Cl)cc2)cc1; 91.4
CCCCNC(=O)Oc1ccc(/C(=C(/C)Cc2ccc(OC)cc2)c2ccc(OCCN3CCCCCC3)cc2)cc1; 101
O=C(Cc1ccc(/C=C/C(=O)c2ncc[nH]2)cc1)Nc1cc(C(F)(F)F)cc(C(F)(F)F)c1; 103
CCOC(=O)C#Cc1c(C(=O)OCC)nnn1Cc1ccc(C(F)(F)F)cc1; 71.9
O=C1Nc2c(C(=O)O)cccc2/C1=N/c1n[nH]c(=S)s1; 86.2
O=C1/C(=C/c2ccccc2F)CN(C(=O)C(Cl)Cl)C/C1=C\c1ccccc1F; 39.4
CCOc1ccc(-n2nc(C(=O)NCc3ccccc3OC)nc2-c2cc(OC)c(OC)c(OC)c2)cc1; 62.5
CN(C)S(=O)(=O)Oc1ccc(-c2sc3cc(OS(=O)(=O)N(C)C)ccc3c2C(=O)c2ccc(OCCN3CCCCC3)cc2)cc1; 64.6

Recall the recorded growth for COc1ccccc1C(=O)Nc1cccc(NC(=O)c2ccoc2C)c1 with NCI-H226 lung and state it.
70.7

For the record CC(=O)OC(c1ccccc1)C1CCOC1=O (stereo unspecified) , what value of growth is listed for NCI-H226 lung?
93.6

Param readout= growth; system= NCI-H226 lung; entry= Nn1c(=O)c(=O)[nH]c2c(cnn2-c2ccccc2)c1=O ; returns value.
94.2

Quick check: growth on NCI-H226 lung, item Cc1n[nH]c2ccc(Br)cc2c1=O ?
96.5

For NCI-H226 lung, provide growth of CC(C)CCN(CCC(C)C)CC(O)c1cc2c(c3ccccc13)CCCC2 (stereo unspecified) please.
70.2

Which measured growth belongs to NNCCc1ccc(NC(=O)CCCc2ccc(C(=O)Nc3ccccc3N)cc2)cc1 , tested on NCI-H226 lung?
74.3

Form entry - test system: NCI-H226 lung; read-out: growth; compound: CO[C@H](C(=O)[C@@H](O)[C@@H](C)O)[C@@H]1Cc2cc3cc(O[C@H]4C[C@@H](O[C@H]5C[C@@H](O)[C@H](O)C(C)O5)[C@H](O)C(C)(O)O4)cc(O)c3c(O)c2C(=O)[C@H]1O[C@H]1C[C@@H](O[C@H]2C[C@@H](O[C@H]3C[C@@H](OC)[C@H](O)C(C)O3)[C@@H](O)C(C)O2)[C@H](O)C(C)O1 (stereo partly specified)
-29.7

What growth appears in the records for this compound with NCI-H226 lung? Clc1ccccc1-c1cnn2cc(-c3ccccc3)cnc12
83.2
